# TARGET_DESC: WHTS, trimeric spike protein, wild-type (Wuhan) (SARS-CoV-2 (Wuhan), UniProt P0DTC2 14-1213)
# PROCEDURE_TEXT: dot blot
EXPERIMENTAL_ENDPOINT: Kd (nM)
Numeric answer only, unit nM assumed.

I am curious: what Kd value has been reported for TTCCGGTTAATTTATGCTCTACCCGTCCACCTACCGGAA (structured_DNA) [MSA1T] ? 11.9
